Known inhibition of growth at 10 µM of a selection of molecules
system: SK-OV-3; test: Growth inhibition of human SKOV3 cells assessed as growth inhibition at 10 uM by sulforhodamine B assay; format: functional; details: read-out: GI

{"Substance smiles": "CC1(C)C[C@@H](O)[C@]2(C(=O)O)CC[C@]3(C)C(=CC[C@@H]4[C@@]5(C)CCC(=O)C(C)(C)[C@@H]5CC[C@]43C)[C@@H]2C1", "inhibition of growth at 10 µM": "< 10%"}
{"Substance smiles": "C/C=C(/C)C(=O)O[C@@H]1CC(C)(C)C[C@H]2C3=CC[C@@H]4[C@@]5(C)CCC(=O)C(C)(C)[C@@H]5CC[C@@]4(C)[C@]3(C)CC[C@@]12C(=O)O", "inhibition of growth at 10 µM": "< 10%"}
{"Substance smiles": "CC1(C)C[C@@H](O)[C@]2(C(=O)O)CC[C@]3(C)C(=CC[C@@H]4[C@@]5(C)CC[C@H](O)C(C)(C)[C@@H]5CC[C@]43C)[C@@H]2C1", "inhibition of growth at 10 µM": "< 10%"}
